# measured.target: human parathyroid hormone receptor 2 (human, UniProt P49190)
# experiment.notes: cell-based or functional assay
Non-standard residues stand in square brackets, D forms with d. No end group written: not given here. 1Nal = N[C@@H](Cc1cccc2ccccc12)C(=O)O; β3hI = CC[C@H](C)[C@H](N)CC(=O)O; Nle = CCCC[C@H](N)C(=O)O; Aib = CC(C)(N)C(=O)O
property: hPTHR-2 EC50 (nM), luciferase reporter gene assay
Kindly provide the numeric value in nM only, without the unit symbol.

{"binder": "SVSEIQL[Nle]HNLGKHLNS[β3hI]ERVE[1Nal]LRKLLQDV-OH [[Nle^8, β-hIle^18, 1-Nal^23, Leu^27] hPTH (1-31)-OH]", "endpoint.result": 76}
{"binder": "SVSEIQL[Nle]HNLGKHLNS[β3hI]ERVE[1Nal]LRKLLQDVHEF-NH2 [[Nle^8, β-hIle^18, 1-Nal^23, Leu^27, Glu^33] hPTH (1-34)-NH2]", "endpoint.result": 41}

Enquiry: Query (binder): [Aib]VSEIQL[Nle]HNLGKHLNS[β3hI]ERVE[1Nal]LRKLLQDVHNF-NH2 [[Aib^1, Nle^8, β-hIle^18, 1-Nal^23, Leu^27] hPTH (1-34)-NH2] ; field requested: hPTHR-2 EC50 (nM), luciferase reporter gene assay
Return: 16

Enquiry: Thanks! And SVSEIQL[Nle]HNLGKHLNS[β3hI]ERVE[1Nal]LRKLLQDVHNK-NH2 [[Nle^8, β-hIle^18, 1-Nal^23, Leu^27, Lys^34] hPTH (1-34)-NH2] ?
Return: 17

Enquiry: Thanks! And [Aib]VSEIQL[Nle]HSLGKHLKS[β3hI]ERVE[1Nal]LRKLLQRV-NH2 [[Aib^1, Nle^8, Ser^10, Lys^16, β-hIle^18, 1-Nal^23, Leu^27, Arg^30] hPTH (1-31)-NH2] ?
Return: 6

Enquiry: Thanks! And SVSEIQL[Nle]HNL[Aib]KHLNS[β3hI]ERVE[1Nal]LRKLLQDVHNF-NH2 [[Nle^8, Aib^12, β-hIle^18, 1-Nal^23, Leu^27] hPTH (1-34)-NH2] ?
Return: 13
